- Target system: T1, StpA-CTD (Escherichia coli, UniProt P0ACG1 90-134)
- T1 chain: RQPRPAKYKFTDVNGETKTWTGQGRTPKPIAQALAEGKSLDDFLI
- Method: ITC; 5 C; n=1.84; 50 mM BisTris, 25 mM NaCl, pH 6.4; ITC at 5 and 25 C (40 uM RNA in cell, StpA-CTD 400/800/920 uM injected); NMR with 10% D2O, titration at 25 C
- Stated conditions: protein: recombinant; tags: none (His6-SUMOstar removed by SUMO protease); chain copies: 2
Readout label: Kd (µM)
Numbers only, in µM.

The binder GACCGGAAGGUCCGCCUUCC (structured_RNA) [bistable 20mer RNA] showed Kd equal to 9.4
